Target: recombinant GST fusion MALT1 (human MALT1) (Homo sapiens (Human), UniProt Q9UDY8)
Sequence (Q9UDY8 whole entry, the tested form may be a part): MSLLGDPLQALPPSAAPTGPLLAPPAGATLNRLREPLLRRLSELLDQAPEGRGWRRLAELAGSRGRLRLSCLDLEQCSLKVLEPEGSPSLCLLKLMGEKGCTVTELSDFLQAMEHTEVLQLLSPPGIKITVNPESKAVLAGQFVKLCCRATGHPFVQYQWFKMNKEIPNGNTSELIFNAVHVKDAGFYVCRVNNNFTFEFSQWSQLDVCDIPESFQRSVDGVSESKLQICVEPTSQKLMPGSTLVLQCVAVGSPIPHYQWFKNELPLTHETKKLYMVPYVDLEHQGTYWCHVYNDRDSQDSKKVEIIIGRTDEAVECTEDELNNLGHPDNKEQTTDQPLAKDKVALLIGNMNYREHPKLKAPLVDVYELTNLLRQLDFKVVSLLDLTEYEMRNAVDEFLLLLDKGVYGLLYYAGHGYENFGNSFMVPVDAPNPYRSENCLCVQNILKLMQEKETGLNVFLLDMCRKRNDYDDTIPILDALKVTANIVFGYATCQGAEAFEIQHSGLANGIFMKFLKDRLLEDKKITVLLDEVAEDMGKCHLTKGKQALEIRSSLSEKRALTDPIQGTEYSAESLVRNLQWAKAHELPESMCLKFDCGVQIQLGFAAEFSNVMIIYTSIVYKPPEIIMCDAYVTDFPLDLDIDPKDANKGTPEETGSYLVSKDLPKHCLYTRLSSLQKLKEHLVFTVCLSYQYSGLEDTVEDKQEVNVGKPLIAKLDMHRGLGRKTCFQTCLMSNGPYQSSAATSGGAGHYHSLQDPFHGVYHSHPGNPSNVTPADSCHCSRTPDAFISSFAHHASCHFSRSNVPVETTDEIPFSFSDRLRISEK
Experiment: Evaluation of inhibition of protease activity of MALT1 (cleavage of fluorescent peptide substrate Ac-LRSR-AMC)
Assay type: biochemical
Details: substrate Ac-LRSR-AMC 20 μmol/L, 30° C. for 80 minutes
Where a name gives a salt, the structure may show the parent alone.
# pIC50 listing for each entry below
By convention, pIC50 is the negative base-10 log of a molar concentration.

Examples with their reported pIC50 follow.
molecule	pIC50
N/C(=N\S(=O)(=O)c1ccccc1)NCc1ncc(-c2ccc(Cl)cc2)c(-c2ccc(Cl)cc2)n1	7.14
N#Cc1ccc(-c2ncc(CN/C(N)=N/S(=O)(=O)c3ccccc3)cc2-c2ccc(Cl)cc2)cc1	6.72

[Q] Give the measured pIC50 for Cl.N/C(=N\S(=O)(=O)c1ccccc1)NCc1cnc(-c2ccc(Cl)cc2)c(-c2ccc(Cl)cc2)c1 [Compound of Example 2, Hydrochloride]
[A] 6.57

[Q] Supply reported pIC50 belonging to this molecule: `N/C(=N\S(=O)(=O)c1cccs1)NCc1cnc(-c2ccc(Cl)cc2)c(-c2ccc(Cl)cc2)c1`
[A] 7.00

[Q] Answer with reported pIC50 of N/C(=N\C(=O)c1cccs1)NCc1cnc(-c2ccc(Cl)cc2)c(-c2ccc(Cl)cc2)c1 [Compound of Example 35, Hydrochloride]
[A] 6.50

[Q] Could you please provide reported pIC50 for `N/C(=N\C(=O)C1CCCC1)NCc1cnc(-c2ccc(Cl)cc2)c(-c2ccc(Cl)cc2)c1` ? Thanks!
[A] 6.47

[Q] Report pIC50, nothing else, for this molecule: `COc1ccc(-c2cc(CN/C(N)=N/S(=O)(=O)c3ccccc3)cnc2-c2ccc(Cl)cc2)cc1F`
[A] 5.89

[Q] Provide one value: measured pIC50 of `N/C(=N\C(=O)c1cscn1)NCc1cnc(-c2ccc(Cl)cc2)c(-c2ccc(Cl)cc2)c1`
[A] 6.03

[Q] Could you please provide reported pIC50 for `N/C(=N\S(=O)(=O)c1ccsc1)NCc1cnc(-c2ccc(Cl)cc2)c(-c2ccc(Cl)cc2)c1` ? Thanks!
[A] 6.94

[Q] Query pIC50 for `N/C(=N\S(=O)(=O)c1ccccc1)NCc1cnc(-c2ccc(C(F)(F)F)cc2)c(-c2ccc(Cl)cc2)c1`
[A] 6.46

[Q] Look up pIC50 of `N/C(=N\C(=O)c1ccc(F)cc1)NCc1cnc(-c2ccc(Cl)cc2)c(-c2ccc(Cl)cc2)c1` and report it.
[A] 5.95

[Q] Please list pIC50 recorded for the molecule `N/C(=N\C(=O)c1nccs1)NCc1cnc(-c2ccc(Cl)cc2)c(-c2ccc(Cl)cc2)c1`
[A] 6.39

====

Target: recombinant GST fusion MALT1 (human MALT1) (Homo sapiens (Human), UniProt Q9UDY8)
Assay: Evaluation of inhibition of protease activity of MALT1 (cleavage of fluorescent peptide substrate Ac-LRSR-AMC)
Settings: substrate Ac-LRSR-AMC 20 μmol/L, 30° C. for 80 minutes
Where a name gives a salt, the structure may show the parent alone.
metric: pIC50
Quick note: pIC50 values are minus log10 of concentrations in mol/L.

Answered examples (5):
compound	pIC50
COc1ccccc1S(=O)(=O)/N=C(\N)NCc1cnc(-c2ccc(Cl)cc2)c(-c2ccc(Cl)cc2)c1	6.49
N/C(=N\S(=O)(=O)c1ccccc1)NCc1cnc(-c2ccc(F)cc2)c(-c2ccc(Cl)cc2)c1	5.89
N/C(=N\S(=O)(=O)c1ccccc1)NCc1cnc(-c2ccc(O)cc2)c(-c2ccc(Cl)cc2)c1 [Compound of Example 95, Hydrochloride]	5.99
N#Cc1cccc(S(=O)(=O)/N=C(\N)NCc2cnc(-c3ccc(Cl)cc3)c(-c3ccc(Cl)cc3)c2)c1	6.49
N/C(=N\S(=O)(=O)c1ccccc1)NCc1cnc(-c2ccc(Cl)cc2)c(-c2ccccc2)c1	6.16

Moving on to another compound below.
[Q] Respond only with pIC50 recorded for `CC(C)Oc1ccc(-c2cc(CN/C(N)=N/S(=O)(=O)c3ccccc3)cnc2-c2ccc(Cl)cc2)cc1`
[A] 5.76
